Where do the numbers come from? From ChEMBL document CHEMBL3779883.

Biological target: Serine protease hepsin (Homo sapiens, UniProt P05981)
Sequence (P05981 1-162 limits assumed): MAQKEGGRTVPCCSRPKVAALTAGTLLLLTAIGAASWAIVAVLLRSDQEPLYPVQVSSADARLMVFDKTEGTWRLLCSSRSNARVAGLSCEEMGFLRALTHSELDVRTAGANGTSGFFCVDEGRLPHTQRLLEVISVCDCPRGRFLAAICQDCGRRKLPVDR
Sequence (P05981 163-417 limits assumed): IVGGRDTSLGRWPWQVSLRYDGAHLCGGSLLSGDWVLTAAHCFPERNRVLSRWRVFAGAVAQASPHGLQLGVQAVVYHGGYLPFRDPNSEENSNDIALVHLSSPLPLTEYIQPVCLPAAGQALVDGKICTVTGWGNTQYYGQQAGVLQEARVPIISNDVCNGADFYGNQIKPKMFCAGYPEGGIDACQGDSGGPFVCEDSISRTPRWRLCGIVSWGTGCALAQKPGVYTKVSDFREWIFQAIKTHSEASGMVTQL
Assay: Inhibition of human recombinant hepsin using H2N(EEdansyl)GKQLRVVNGG (KDabcyl)-NH2 as substrate by fluorometric analysis
READOUT_LABEL: Ki

Before answering, review these 2 worked examples.
[
  {
    "COMPOUND": "N=C(N)c1cccc(N2CC(NS(=O)(=O)c3ccccc3)CN(CC3CCN(Cc4ccccc4)CC3)C2=O)c1 (stereo not drawn)",
    "TESTED_TARGET": "Serine protease hepsin (Homo sapiens, UniProt P05981)",
    "Ki": "0.67 µM"
  },
  {
    "COMPOUND": "COC1CN(CC2CCN(Cc3ccccc3)CC2)C(=O)N(c2cccc(C(=N)N)c2)C1 (stereo not drawn)",
    "TESTED_TARGET": "Serine protease hepsin (Homo sapiens, UniProt P05981)",
    "Ki": "0.76 µM"
  }
]

Note: attention shifts to another entry.
Fetch value of Ki on Serine protease hepsin (Homo sapiens, UniProt P05981) for COCC1CN(CC2CCN(Cc3ccccc3)CC2)C(=O)N(c2cccc(C(=N)N)c2)C1 (stereo not drawn) .
0.92 µM
